Data origin, for the record: the RNAGym collection of RNA variant scans (doi:10.1073/pnas.2313332121)

B1: TPR t1 (parent)
chain: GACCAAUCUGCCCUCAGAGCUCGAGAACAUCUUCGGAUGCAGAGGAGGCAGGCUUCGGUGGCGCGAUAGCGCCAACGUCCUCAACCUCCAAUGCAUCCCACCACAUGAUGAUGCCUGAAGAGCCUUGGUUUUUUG

Variants of: B1
Experiment: polymerase ribozyme fitness, log enrichment relative to wild type (log ratio); higher = more active; in vitro selection for triplet polymerase activity
Decision: polymerase ribozyme fitness (log ratio) compared against -3; not below it gives Yes, below it gives No.

| Polymer Sequence | Assigned Category |
| --- | --- |
| GACCAAUCUGCCCUCAAAGCUCGAGAACAUCUUCGGAUGCAGAGGCGGCAGGCUUCGGUGGCUCGAUAGCGCCUACGUCCUCAACCUCGAAUGCAUCCCACUACUUGAUGAUGCCUGAAGAGCCUUGGUUUUUUG [G17A A46C G63U A74U C89G C102U A105U] | No |
| GACCAAUCUGCCCUCAGAGCUCGAGACCAUCUUCGGAUGCCGAGGAGGCAGGCUUCGGUGGCGCGAUAGCGCCAACGUCCUCAACCUCCAAUGCAUCCCACCACACGAUGAUGCCUGAAGAGCCUUGGUUUUUUG [A27C A41C U106C] | No |
| GACCAAUCUGCCCUCAGAGCUCGAGAACAUCUUCGGAUGCAGAGGAGGCAGGCUUCGGUGGCGCGAUAGCGCCAACCUCCUCAACCUCCAAUGCAUCCCACCACAUGAUGAUGCCUGAAGAGCCUUGGAUUUUUG [G77C U129A] | Yes |
| GACCAAUCUGCCCUCAGAGCUCGAGAACAUCUUCGGAUGCAGAGGAGGCAGGCUUCGGUGUCGCGAUAGCGCCAACGUCCUCAACCUCCAAUGCAUCCCACCACAUGAUGAUGCCUGAGGAGCCUUGGUUUUUUG [G61U A119G] | Yes |
| GACCAAUCUGCCCUCAGAGCUCGAGAACAUCUUCGGAUGCUGAAGAGGCAGGCUUCGGUGGCGCGAUAGCGCCAACGUCCUCAACCUCCAAUGCAUCCCACCACAUGAUGAUGCCUGAAGAGCCUUGGUUUUUUG [A41U G44A] | Yes |
| GACCAGUCUGCCCUCAGAGCUCGAGAACAUCUUCGGAUGCAGAGGAGGCAGGCUUCGGUGGCGCGAUAGCGCCAAAGUACUCAACCUCCAAUGCAUCCCACCACAUGAUGAUGCCUGAACAGCCUUGGUUUUUUG [A6G C76A C79A G120C] | Yes |
| GACCAAUCUGCCCUCAGAGGUCGAGAACAUCUUCGGAUGCAGGGGAGGCAGGCUUCGGUGGCGCGAUAGCGCCAACGUCCUCAACCUCAAAUGCAUCCCACCACAUGAUGAUGCCUGAAGAGCCUUGGUUUUUUG [C20G A43G C89A] | No |
| GACCAAUCUGCCCUCAGAGCUCGAGAACAUCUUCGGAUGCAGAGGAGGCAGGCUUCGGUGGCGCGAUAGCGCCAACGUCCUCGACCUCCAAUGCAUCCCACCACAUGAUGAUGCCUGAAAAGCCUUGGUUUUUUG [A83G G120A] | Yes |

Kindly determine if polymerase ribozyme fitness (log ratio) recorded for GACCAAUCUGCCCUCAGAGCUCGAGAACAUCUUCGGAUGCAGAGGAGGCAGGCUUUGGUGGCGCGAUAGCGCCAACGUCCUCAGCCUCCAAUGCAUCCCACCACAUGAUGAUGCCUGAAGAGCCUUGGUUUUGUG [C56U A84G U133G] is above or exactly -3.
Yes

Kindly determine if polymerase ribozyme fitness (log ratio) recorded for GACCAAUCUGCCCUCAGAGCUCGAGAACAUCUUCGGAUGCAUAGGAGGCAGGCUUCGGUGGCGCGAUAGCGCCAACGUCCUCAACCUCCAAUGCAUCCCACCACAUGAUGAUGCCUAAAGAGCCUUGGUUUUUUG [G42U G117A] is above or exactly -3.
Yes

Kindly determine if polymerase ribozyme fitness (log ratio) recorded for GACCAAUCUGCCCUCAGAGCUCGAGAACAUGUUCGGAUUCAGAGGAGGCAGGCUUCGGUGGCGCGAUAGCGACAACGUCCUCAACCUCCAAUGCAUCCCACCACAAGAUGAUGCCUGAAUAGCCUUGGUUUUUUG [C31G G39U C72A U106A G120U] is above or exactly -3.
No

Kindly determine if polymerase ribozyme fitness (log ratio) recorded for GACCAAUCUGCCCUCAGAGCUCGAGAACAUCUUCGGAUGCAGAGGUGGCAGGCUUCGGUGGCCCGAUAGCGCCAAAGUCCUCAAACUCCAAUGCAUCCCACCACAUGAUGAUGCGUGAAGAGCCUUGGUUUUUUG [A46U G63C C76A C85A C115G] is above or exactly -3.
No
